The reported measurements were obtained from patent US20060100177A1.

- method: stability test of aqueous solution, ratio of compound remaining after storage (HPLC)
- Assay type: physicochemical
- conditionParameters: 2 mass % in purified water, glass bottle, 40° C., light-shielding, 10 days
Listed here: items and their measured Residual Ratio (%).

compound	Residual Ratio (%)
CCCCCCCCCCCCCCCC(=O)OC[C@H](O)[C@H]1OC(=O)C(OP(=O)(O)O)=C1O.[Na] [Comparative Example A-1, reference compound]	88.6
CCCCCCCCC(CCCCCC)C(=O)OC[C@H](O)[C@H]1OC(=O)C(OP(=O)(O)O)=C1O.[Na] (stereo partly shown) [Example A-1]	95.3
CCCCCCCCCC(CCCCCCC)C(=O)OC[C@H](O)[C@H]1OC(=O)C(OP(=O)(O)O)=C1O.[Na] (stereo partly shown) [Example A-2]	95.5
O=C1O[C@H]([C@@H](O)CO)C(O)=C1OP(=O)([O-])[O-].[Na+].[Na+] [Comparative Example A-2, L-ascorbic acid-2-phosphate sodium salt, reference compound]	96.9
